Each entry below carries its reported fluorescence slope.
# Subject of test: Voltage-gated potassium channel subunit beta-2 (Rattus norvegicus)
# Experiment summary: KvBeta enzyme negative modulators, primary screen, biochemical, NADPH fluorescence (AID 622);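 note: slope of raw intensity against log time taken from 70 to 1610 s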
# Run conditions: recombinant KvBeta, 4-cyanobenzaldehyde reduction, at 10 µM, stronger effect = higher value
Hey, just send me the number, nothing else.

Answered cases to consult:
{"columns": ["Compound", "Subject of test", "fluorescence slope"],
 "data": [
  ["Cc1ccc(S(=O)(=O)N2CCN(c3nc(C(C)C)c4c(c3C#N)CC(C)(C)OC4)CC2)cc1", "Voltage-gated potassium channel subunit beta-2 (Rattus norvegicus)", -0.441],
  ["COc1cc2nc(N3CCN(C(=O)c4ccco4)CC3)nc(N)c2cc1OC", "Voltage-gated potassium channel subunit beta-2 (Rattus norvegicus)", -0.4],
  ["COC(=O)C1=C(C)N=C2SC(C)C(=O)N2C1c1cccs1 (stereo not given)", "Voltage-gated potassium channel subunit beta-2 (Rattus norvegicus)", -0.426]
]}

[in] I have this compound here, `CCCCN(CCCC)CCCOC(=O)c1ccc(N)cc1` , and I need its recorded fluorescence slope.
[out] -0.511

[in] I have this compound here, `COc1ccccc1-n1c(=O)c2c3c(sc2n2c(SC(C)C)nnc12)CCC3` , and I need its recorded fluorescence slope.
[out] -0.248

[in] I have this compound here, `CN1CCc2c(sc3ncn4nc(-c5ccccc5O)nc4c23)C1` , and I need its recorded fluorescence slope.
[out] -0.472

[in] I have this compound here, CS(=O)(=O)CCC(C(=O)n1nnc2ccccc21)N1C(=O)c2ccccc2C1=O (stereo not given) , and I need its recorded fluorescence slope.
[out] -0.419

====

# Experiment summary: inhibitors of TNFa-induced NFkB p65 translocation, primary screen, imaging, HUVEC, MLSMR starter and 10KST1 sets (AID 438);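 note: compound added about 3h40 before a 20 min TNFalpha stimulation; signal is the nuclear over cytoplasmic p65 intensity ratio per well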
# Run conditions: HUVEC TNFa-induced p65 nuclear translocation; at 2 µM, stronger effect = higher value, 0% TNFa-plus-vehicle, 100% no-TNFa wells
Calls of active or inactive are those of the source.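 How the source made its calls: active means inhibition above 20% together with a positive visual image hit; inconclusive means visual image hit but inhibition not above 20%; inactive means no visual image hit.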
Each entry below carries its reported inhibition.

{"columns": ["Compound", "inhibition"],
 "data": [
  ["Cc1cc(-c2cc(-c3ccc(Cl)cc3)nc(N)c2C#N)co1", "-6.2% (inactive)"],
  ["CCOC(=O)C(NC=O)(NC(C)(C)C)C(=O)OCC", "-16.1% (inactive)"],
  ["CCN1CCN(c2nc3c(C)cccn3c(=O)c2/C=C(\\C#N)S(=O)(=O)c2ccc(C)cc2)CC1", "-0.8% (inactive)"]
]}

[in] I have this compound here, `CCSC(SCC)[C@H](O)[C@@H](O)[C@H](O)[C@H](O)CO` , and I need its recorded inhibition.
[out] -2.2% (inactive)

[in] I have this compound here, `CCS(=O)(=O)CCn1c([N+](=O)[O-])cnc1C` , and I need its recorded inhibition.
[out] 5.5% (inactive)

[in] I have this compound here, `Cc1ccc2cc(CN(C(=O)c3ccco3)c3ccccc3)c(=O)[nH]c2c1` , and I need its recorded inhibition.
[out] -4.2% (inactive)

[in] I have this compound here, `CC1(C)Cc2c(c(-c3ccccc3)[nH]c(=O)c2C#N)CS1` , and I need its recorded inhibition.
[out] -15.7% (inactive)

[in] I have this compound here, CCCCOc1ccc(CSC(CC(=O)O)C(=O)O)cc1 (configuration not stated) , and I need its recorded inhibition.
[out] -16.7% (inactive)

[in] I have this compound here, `Cc1cccc(N(Cc2cc3ccccc3[nH]c2=O)C(=O)c2ccco2)c1C` , and I need its recorded inhibition.
[out] -8.8% (inactive)

[in] I have this compound here, `Cn1c(=O)n(CCC(=O)O)c2ccccc21` , and I need its recorded inhibition.
[out] -3.4% (inactive)

[in] I have this compound here, CN1CCC2(CC1)C1CN(C)CC=C1C(C#N)=C(N)C2(C#N)C#N (configuration not stated) , and I need its recorded inhibition.
[out] -8.9% (inactive)

[in] I have this compound here, O=C(O)CC(C(=O)OCC1CCCO1)N1CCOCC1 (configuration not stated) , and I need its recorded inhibition.
[out] -5.8% (inactive)

====

# Experiment summary: DUSP6 inhibitors restoring Erk phosphorylation by chemical complementation, primary imaging in DUSP6-transfected HeLa (AID 609)
# Run conditions: HeLa MKP-3 transfected, phospho-Erk imaging KS statistic; measured here: nuclear c-Myc green intensity z-score; at 10 µM; cells stimulated with TPA for 15 min
Each entry below carries its reported z-score.
Hey, just send me the number, nothing else.

Answered cases to consult:
{"columns": ["Compound", "z-score"],
 "data": [
  ["CC(=O)Nc1ccc(-c2cc3ccccc3o2)cc1", 2.18],
  ["Cn1c(=O)c2c(nc(NCc3ccc4c(c3)OCO4)n2Cc2ccc(F)cc2)n(C)c1=O", -0.0841],
  ["Cc1cc(C)nc(N(C#N)S(=O)(=O)c2ccccc2Cl)n1", -1.54],
  ["COCc1cc(C)nc(SCC(=O)Nc2ccc(C)c(C)c2)c1C#N", 0.714],
  ["Nc1ncnc2c1ncn2[C@@H]1O[C@H](CO)[C@@H](O)[C@H]1O", -0.14],
  ["COc1cc(C2C(C(=O)c3ccc(C)o3)=C(O)C(=O)N2c2cc(C)on2)cc(OC)c1OC (configuration not stated)", 0.514],
  ["Cc1cc(Cl)ccc1OCC(=O)OC(C)C(=O)N(C)C (configuration not stated)", 0.169],
  ["CCCCC[C@H](O)/C=C/[C@@H]1[C@@H](CCCCCCC(=O)O)[C@@H](O)C[C@H]1O", 0.536],
  ["CCN(CC)CCNC(=O)c1cc(S(C)(=O)=O)ccc1OC", -0.48],
  ["CCOc1ccccc1N1CCN(c2nc3ccccc3nc2C(C#N)C(=O)OC(C)C)CC1 (configuration not stated)", -0.0935]
]}

Next item in the queue.
[in] I have this compound here, `CC(=O)O[C@]1(C(C)=O)CC[C@H]2[C@@H]3C=C(C)C4=CC(=O)CC[C@]4(C)[C@H]3CC[C@@]21C` , and I need its recorded z-score.
[out] -0.815

====

# Experiment summary: inhibitors of poly I:C-induced TLR3 signaling, primary screen, cell-based, poly I:C stimulus, luciferase, 10K MLSCN set (AID 602277)
# Run conditions: HEK293-TLR3 RL24 IRF3 luciferase reporter, at 10 µM, stronger effect = higher value
Assay metric: inhibition (%)
Just the number please, in %, no unit attached.

Answered cases to consult:
{"columns": ["Compound", "Unit text", "inhibition"],
 "data": [
  ["Cc1noc(COc2ccccc2OCC(O)CNC(C)(C)C)n1 (stereo unspecified)", "%", 99.7],
  ["CCCC(=O)O[C@]1(C(=O)COC(C)=O)CC[C@H]2[C@@H]3C[C@H](F)C4=CC(=O)C=C[C@]4(C)[C@@]3(F)[C@@H](O)C[C@@]21C", "%", 48.2],
  ["Nc1nc(Cl)nc2c1ncn2[C@@H]1O[C@H](CO)[C@@H](O)[C@H]1O", "%", 39]
]}

Next item in the queue.
[in] I have this compound here, `CCS(=O)(=O)CCn1c([N+](=O)[O-])cnc1C` , and I need its recorded inhibition.
[out] -11.5

====

# Experiment summary: inhibitors of E-selectin induction by TNFa, primary screen, imaging, HUVEC, immunofluorescence, MLSMR starter and 10KST1 sets (AID 487);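 note: signal is fraction of cell area covered by stained E-selectin grains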
# Run conditions: HUVEC TNFalpha-induced E-selectin immunofluorescence imaging, at 2 µM; stronger effect = higher value
Calls of active or inactive are those of the source.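 How the source made its calls: active means visually confirmed hit in the image check and inhibition above 20%; inconclusive means visually confirmed hit but inhibition not above 20%; inactive means no visual hit in the image check.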
Assay metric: inhibition

Answered cases to consult:
{"columns": ["Compound", "inhibition"],
 "data": [
  ["Fc1ccccc1-c1nc(N2CCCCC2)c2ccccc2n1", "-149% (inactive)"],
  ["COc1ccc(C(C)=O)cc1CSCCC(=O)O", "-82.1% (inactive)"],
  ["COC(=O)Cn1cc(C(=O)OC)cc(Br)c1=O", "-135% (inactive)"],
  ["CCS(=O)(=O)CCn1c([N+](=O)[O-])cnc1C", "-68.3% (inactive)"]
]}

Next item in the queue.
[in] I have this compound here, Cc1ccc2[nH]c3c(c2c1)CCCC3C(N)=O (stereo not given) , and I need its recorded inhibition.
[out] -103% (inactive)

====

# Subject of test: Voltage-gated potassium channel subunit beta-2 (Rattus norvegicus) (UniProt P62483)
# Sequence (P62483 whole entry, looked up): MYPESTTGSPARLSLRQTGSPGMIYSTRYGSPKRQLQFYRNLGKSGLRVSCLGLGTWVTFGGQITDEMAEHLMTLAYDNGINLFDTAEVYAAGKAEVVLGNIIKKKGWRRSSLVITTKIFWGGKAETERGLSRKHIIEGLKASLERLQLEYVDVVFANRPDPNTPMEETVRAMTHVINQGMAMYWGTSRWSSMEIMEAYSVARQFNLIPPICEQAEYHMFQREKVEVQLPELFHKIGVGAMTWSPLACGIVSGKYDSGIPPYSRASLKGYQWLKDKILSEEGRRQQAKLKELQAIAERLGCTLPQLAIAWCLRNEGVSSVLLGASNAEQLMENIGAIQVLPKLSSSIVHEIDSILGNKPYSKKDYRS
# Experiment summary: KvBeta enzyme negative modulators, primary screen, biochemical, NADPH fluorescence (AID 622);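 note: slope of raw intensity against log time taken from 70 to 1610 s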
# Run conditions: recombinant KvBeta, 4-cyanobenzaldehyde reduction, at 10 µM, stronger effect = higher value
Label Not satisfied if fluorescence slope falls below -0.5; label Satisfied in every other case.

Previously resolved entries follow.
{"columns": ["Molecule", "Label value"],
 "data": [
  ["CC(C)(C)c1ccc(C(=O)C=[N+]=[N-])cc1", "Not satisfied"],
  ["CCOC(=O)[C@H](CCc1ccccc1)N[C@@H](C)C(=O)N1CCC[C@H]1C(=O)O", "Not satisfied"],
  ["CCCCOc1ccc(C2CC(=O)N(C)C2=O)cc1 (stereo not drawn)", "Not satisfied"],
  ["O=C(c1cccc2ccccc12)N1CCC(N2CCN(c3ccccc3)CC2)CC1", "Not satisfied"],
  ["COc1cc(NS(=O)(=O)c2ccc(N)cc2)nc(OC)n1", "Satisfied"]
]}

[in] Hi, just wondering whether CCOC(=O)CC(C#N)c1cn(C)c2ccccc12 (stereo not drawn) shows fluorescence slope of -0.5 or higher.
[out] Satisfied
